- measurement-target: CDK6 (Homo sapiens, UniProt Q00534)
- Construct: endogenous in cells
- Sequence (Q00534 whole entry): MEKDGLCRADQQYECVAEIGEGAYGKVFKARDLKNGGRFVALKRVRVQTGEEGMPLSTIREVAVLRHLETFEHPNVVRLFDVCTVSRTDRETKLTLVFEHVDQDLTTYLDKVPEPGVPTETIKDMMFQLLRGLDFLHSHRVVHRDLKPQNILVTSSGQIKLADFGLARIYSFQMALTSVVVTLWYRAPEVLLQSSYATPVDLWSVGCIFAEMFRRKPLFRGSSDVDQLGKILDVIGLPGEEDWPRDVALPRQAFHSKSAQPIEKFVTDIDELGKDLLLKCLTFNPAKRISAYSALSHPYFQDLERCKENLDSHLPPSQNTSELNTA
- test-protocol: CDK6 degradation (DC50, Dmax)
- Assay type: cell-based
Listed next: entries and their corresponding DC50.

Cc1nc2c(F)cc(-c3nc(Nc4ccc(CN5CCN(CCNc6cccc7c6CN(C6CCC(=O)NC6=O)C7=O)CC5)cn4)ncc3F)cc2n1C(C)C (centres unmarked) | 50 to 200 nM

Request: Return reported DC50; argument: CC(=O)c1c(C)c2cnc(Nc3ccc(N4CCN(C5CCN(C(=O)N6CCC(c7ccc8c(c7)C(=O)N(C7CCC(=O)NC7=O)C8=O)CC6)CC5)CC4)cn3)nc2n(C2CCCC2)c1=O (centres unmarked)
Result: > 200 nM

Request: Return reported DC50; argument: CC(=O)c1c(C)c2cnc(Nc3ccc(N4CCN(C(=O)C5CCN(c6ccc7c(c6)C(=O)N(C6CCC(=O)NC6=O)C7=O)CC5)CC4)cn3)nc2n(C2CCCC2)c1=O (centres unmarked)
Result: 50 to 200 nM

Request: Return reported DC50; argument: Cc1nc2c(F)cc(-c3nc(Nc4ccc(CC5CCN(C6CCN(c7ccc8c(c7)CN(C7CCC(=O)NC7=O)C8=O)CC6)CC5)cn4)ncc3F)cc2n1C(C)C (centres unmarked)
Result: < 50 nM

Request: Return reported DC50; argument: Cc1nc2c(F)cc(-c3nc(Nc4ccc(CN5CCN(C6CCN(c7ccc(C(=O)NC8CCC(=O)NC8=O)cc7)CC6)CC5)cn4)ncc3F)cc2n1C(C)C (centres unmarked) [Compound 150]
Result: < 50 nM

Request: Return reported DC50; argument: CC(=O)c1c(C)c2cnc(Nc3ccc(C4CCN(C(=O)C5CN(c6ccc7c(c6)CN(C6CCC(=O)NC6=O)C7=O)C5)CC4)cn3)nc2n(C2CCCC2)c1=O (centres unmarked)
Result: < 50 nM

Request: Return reported DC50; argument: CC(=O)c1c(C)c2cnc(Nc3ccc(N4CCN(CC5CCN(C(=O)N6CCC(c7ccc8c(c7)C(=O)N(C7CCC(=O)NC7=O)C8=O)CC6)CC5)CC4)cn3)nc2n(C2CCCC2)c1=O (centres unmarked)
Result: > 200 nM

Request: Return reported DC50; argument: CC(=O)c1c(C)c2cnc(Nc3ccc(N4CCN(C5CCN(c6ccc7c(c6)C(=O)N(C6CCC(=O)NC6=O)C7=O)CC5)CC4)cn3)nc2n(C2CCCC2)c1=O (centres unmarked)
Result: < 50 nM

Request: Return reported DC50; argument: Cc1nc2c(F)cc(-c3nc(Nc4ccc(CN5CCN(CC6CN(c7ccc8c(c7)C(=O)N(C7CCC(=O)NC7=O)C8=O)C6)CC5)cn4)ncc3F)cc2n1C(C)C (centres unmarked)
Result: < 50 nM

Request: Return reported DC50; argument: CC(=O)c1c(C)c2cnc(Nc3ccc(N4CCN(CCCNc5ccc6c(c5)C(=O)N(C5CCC(=O)NC5=O)C6=O)CC4)cn3)nc2n(C2CCCC2)c1=O (centres unmarked)
Result: < 50 nM

Request: Return reported DC50; argument: CC(=O)c1c(C)c2cnc(Nc3ccc(N4CCN(CCN5CCN(C(=O)Nc6ccc7c(c6)CN(C6CCC(=O)NC6=O)C7=O)CC5)CC4)cn3)nc2n(C2CCCC2)c1=O (centres unmarked)
Result: 50 to 200 nM

# credit: patent US20230295118A1
